Where these numbers come from: patent US7786083B2

system: metastin receptors; test: Measurement of agonist activity by assaying changes in intracellular calcium ion level (FLIPR, Fluo-4 NW); format: cell-based, human; details: specific activity of the EC50 of a test compound based on the EC50 of Metastin (45-54), metastin receptor expression CHO cells
*1 amine or outer side, *2 acyl side, *3 side chain or, on linkers, in order; H or OH if unused. Where a SMILES comes first, the peptide text is derived from it. [ ]: non-standard residue; d: D form. Glyψ(E-CHCH)Leu = CC(C)C[C@H](/C=C/CN[*:1])C(=O)[*:2]; Phe(4-Me) = Cc1ccc(C[C@H](N)C(=O)O)cc1; Arg(Me) = CNC(=N)NCCC[C@H](N)C(=O)O; Dap(CONH2) = NC(=O)NC[C@H](N)C(=O)O; Hyp = O=C(O)[C@@H]1C[C@@H](O)CN1
Metric: Specific Activity

{"columns": ["Compound", "Value observed"],
 "data": [
  ["CNC(=N)NCCC[C@H](NC(=O)[C@H](CC(C)C)NC(=O)[C@H](COC)NC(=O)[C@H](Cc1ccccc1)NC(=O)[C@@H](NC(=O)[C@H](CC(N)=O)NC(=O)[C@@H]1C[C@@H](O)CN1C(=O)[C@@H](Cc1ccc(O)cc1)NC(C)=O)[C@@H](C)O)C(=O)N[C@@H](Cc1c[nH]c2ccccc12)C(N)=O [Compound No. 828] (Ac-[dY][Hyp]NTFS(Me)L[Arg(Me)]W-NH2)", 1.2],
  ["CNC(=N)NCCC[C@H](NC(=O)[C@H](CC(C)C)NC(=O)CNC(=O)[C@H](Cc1ccc(C)cc1)NC(=O)[C@@H](NC(=O)[C@H](CC(N)=O)NC(=O)[C@@H]1C[C@@H](O)CN1C(=O)[C@@H](Cc1ccc(O)cc1)NC(C)=O)[C@@H](C)O)C(=O)N[C@@H](Cc1c[nH]c2ccccc12)C(N)=O [Compound No. 875] (Ac-[dY][Hyp]NT[Phe(4-Me)]GL[Arg(Me)]W-NH2)", 0.9]
]}

As a next step, examine the compound that follows.
Find the recorded Specific Activity belonging to CNC(=N)NCCC[C@H](NC(=O)[C@@H](/C=C/CNC(=O)[C@H](Cc1ccccc1)NC(=O)[C@@H](NC(=O)[C@H](CNC(N)=O)NC(=O)[C@@H]1C[C@@H](O)CN1C(=O)[C@@H](Cc1ccc(O)cc1)NC(C)=O)[C@@H](C)O)CC(C)C)C(=O)N[C@@H](Cc1c[nH]c2ccccc12)C(N)=O [Compound No. 906] (Ac-[dY][Hyp][Dap(CONH2)]TF[Glyψ(E-CHCH)Leu][Arg(Me)]W-NH2) and report it.
0.6

----------
system: metastin receptors; experiment: Measurement of agonist activity by assaying changes in intracellular calcium ion level (FLIPR, Fluo-4 NW); assay type: cell-based, human; conditions: specific activity of the EC50 of a test compound based on the EC50 of Metastin (45-54), metastin receptor expression CHO cells
*1 amine or outer side, *2 acyl side, *3 side chain or, on linkers, in order; H or OH if unused. Where a SMILES comes first, the peptide text is derived from it. [ ]: non-standard residue; d: D form. X7 = O=C(C/C=C/[C@H](Cc1ccccc1)N[*:1])[*:2]; Arg(Me) = CNC(=N)NCCC[C@H](N)C(=O)O; Ala(cPr) = N[C@@H](CC1CC1)C(=O)O; Hyp = O=C(O)[C@@H]1C[C@@H](O)CN1; Aad = N[C@@H](CCCC(=O)O)C(=O)O; Cha = N[C@@H](CC1CCCCC1)C(=O)O; Cba = N[C@@H](CC1CCC1)C(=O)O
Quick reference for Specific Activity among some molecules
A bare number is all that is needed in reply.

Sample answers from the record:
{"columns": ["Molecule", "Metric", "Value observed"],
 "data": [
  ["CNC(=N)NCCC[C@H](NC(=O)[C@H](CC1CCC1)NC(=O)CNC(=O)[C@H](CC1CCCCC1)NC(=O)[C@@H](NC(=O)[C@H](CC(N)=O)NC(=O)[C@@H]1C[C@@H](O)CN1C(=O)[C@@H](Cc1ccc(O)cc1)NC(C)=O)[C@@H](C)O)C(=O)N[C@@H](Cc1c[nH]c2ccccc12)C(N)=O [Compound No. 946] (Ac-[dY][Hyp]NT[Cha]G[Cba][Arg(Me)]W-NH2)", "Specific Activity", 0.5],
  ["CNC(=N)NCCC[C@H](NC(=O)[C@H](CC1CC1)NC(=O)CNC(=O)[C@H](CC1CCCCC1)NC(=O)[C@@H](NC(=O)[C@H](CC(N)=O)NC(=O)[C@H](CCCC(=O)O)NC(=O)[C@@H](Cc1ccc(O)cc1)NC(C)=O)[C@@H](C)O)C(=O)N[C@@H](Cc1c[nH]c2ccccc12)C(N)=O [Compound No. 910] (Ac-[dY][Aad]NT[Cha]G[Ala(cPr)][Arg(Me)]W-NH2)", "Specific Activity", 1.1]
]}

In the following, a different molecule is considered.
Record request: Specific Activity value, item CNC(=N)NCCC[C@H](NC(=O)[C@H](CC(C)C)NC(=O)C/C=C/[C@H](Cc1ccccc1)NC(=O)[C@@H](NC(=O)[C@H](CC(N)=O)NC(=O)[C@@H]1C[C@@H](O)CN1C(=O)[C@@H](Cc1ccc(O)cc1)NC(C)=O)[C@@H](C)O)C(=O)N[C@@H](Cc1c[nH]c2ccccc12)C(N)=O [Compound No. 859] (Ac-[dY][Hyp]NT[X7]L[Arg(Me)]W-NH2)
0.7

----------
tested on: metastin receptors; assay: Measurement of agonist activity by assaying changes in intracellular calcium ion level (FLIPR, Fluo-4 NW); format: cell-based, human; conditions: specific activity of the EC50 of a test compound based on the EC50 of Metastin (45-54), metastin receptor expression CHO cells
*1 amine or outer side, *2 acyl side, *3 side chain or, on linkers, in order; H or OH if unused. Where a SMILES comes first, the peptide text is derived from it. [ ]: non-standard residue; d: D form. Glyψ(CH2S)Leu = CC(C)C[C@H](SCCN[*:1])C(=O)[*:2]; X4 = O=C(CCC(=O)[*:2])[C@H](Cc1ccccc1)N[*:1]; Arg(Me) = CNC(=N)NCCC[C@H](N)C(=O)O; Ala(cPr) = N[C@@H](CC1CC1)C(=O)O; Hyp = O=C(O)[C@@H]1C[C@@H](O)CN1; Cha = N[C@@H](CC1CCCCC1)C(=O)O; Cba = N[C@@H](CC1CCC1)C(=O)O; Nle = CCCC[C@H](N)C(=O)O; Aib = CC(C)(N)C(=O)O
Metric: Specific Activity

Answered examples (6):
{"columns": ["Compound", "Value observed"],
 "data": [
  ["CNC(=N)NCCC[C@H](NC(=O)[C@H](CC1CC1)NC(=O)CNC(=O)[C@H](CC1CCCCC1)NC(=O)[C@@H](NC(=O)[C@H](CC(N)=O)NC(=O)[C@H](CCCCN)NC(=O)[C@@H](Cc1ccc(O)cc1)NC(C)=O)[C@@H](C)O)C(=O)N[C@@H](Cc1c[nH]c2ccccc12)C(N)=O [Compound No. 911] (Ac-[dY]KNT[Cha]G[Ala(cPr)][Arg(Me)]W-NH2)", 0.7],
  ["CNC(=N)NCCC[C@H](NC(=O)[C@H](CC(C)C)NC(=O)CNC(=O)[C@H](CC1CCCCC1)NC(=O)[C@@H](NC(=O)[C@H](CC(N)=O)NC(=O)[C@H](CCC(=O)O)NC(=O)[C@@H](Cc1ccc(O)cc1)NC(C)=O)[C@@H](C)O)C(=O)N[C@@H](Cc1c[nH]c2ccccc12)C(N)=O [Compound No. 853] (Ac-[dY]ENT[Cha]GL[Arg(Me)]W-NH2)", 0.6],
  ["CCCC[C@H](NC(=O)CNC(=O)[C@H](CC1CCCCC1)NC(=O)[C@@H](NC(=O)[C@H](CC(N)=O)NC(=O)[C@@H]1C[C@@H](O)CN1C(=O)[C@@H](Cc1ccc(O)cc1)NC(C)=O)[C@@H](C)O)C(=O)N[C@@H](CCCNC(=N)NC)C(=O)N[C@@H](Cc1c[nH]c2ccccc12)C(N)=O [Compound No. 932] (Ac-[dY][Hyp]NT[Cha]G[Nle][Arg(Me)]W-NH2)", 0.6],
  ["CNC(=N)NCCC[C@H](NC(=O)[C@H](CC1CC1)NC(=O)CNC(=O)[C@H](CC1CCC1)NC(=O)[C@@H](NC(=O)[C@H](CC(N)=O)NC(=O)[C@@H]1C[C@@H](O)CN1C(=O)[C@@H](Cc1ccc(O)cc1)NC(C)=O)[C@@H](C)O)C(=O)N[C@@H](Cc1c[nH]c2ccccc12)C(N)=O [Compound No. 945] (Ac-[dY][Hyp]NT[Cba]G[Ala(cPr)][Arg(Me)]W-NH2)", 0.7],
  ["CNC(=N)NCCC[C@H](NC(=O)[C@H](CC1CC1)NC(=O)CNC(=O)[C@H](CC1CCCCC1)NC(=O)[C@@H](NC(=O)[C@H](CC(N)=O)NC(=O)C(C)(C)NC(=O)[C@@H](Cc1ccc(O)cc1)NC(C)=O)[C@@H](C)O)C(=O)N[C@@H](Cc1c[nH]c2ccccc12)C(N)=O [Compound No. 912] (Ac-[dY][Aib]NT[Cha]G[Ala(cPr)][Arg(Me)]W-NH2)", 0.6],
  ["CNC(=N)NCCC[C@H](NC(=O)[C@H](CC(C)C)NC(=O)CCC(=O)[C@H](Cc1ccccc1)NC(=O)[C@@H](NC(=O)[C@H](CC(N)=O)NC(=O)[C@@H]1C[C@@H](O)CN1C(=O)[C@@H](Cc1ccc(O)cc1)NC(C)=O)[C@@H](C)O)C(=O)N[C@@H](Cc1c[nH]c2ccccc12)C(N)=O [Compound No. 851] (Ac-[dY][Hyp]NT[X4]L[Arg(Me)]W-NH2)", 1.1]
]}

Which Specific Activity is reported for this compound? CNC(=N)NCCC[C@H](NC(=O)[C@H](CC(C)C)NC(=O)NCC[C@H](Cc1ccccc1)NC(=O)[C@@H](NC(=O)[C@H](CC(N)=O)NC(=O)[C@@H]1C[C@@H](O)CN1C(=O)[C@@H](Cc1ccc(O)cc1)NC(C)=O)[C@@H](C)O)C(=O)N[C@@H](Cc1c[nH]c2ccccc12)C(N)=O
0.6

Any idea what its Specific Activity is? The compound is CNC(=N)NCCC[C@H](NC(=O)[C@H](CC(C)C)SCCNC(=O)[C@H](Cc1ccccc1)NC(=O)[C@@H](NC(=O)[C@H](CC(N)=O)NC(=O)[C@@H]1C[C@@H](O)CN1C(=O)[C@@H](Cc1ccc(O)cc1)NC(C)=O)[C@@H](C)O)C(=O)N[C@@H](Cc1c[nH]c2ccccc12)C(N)=O [Compound No. 929] (Ac-[dY][Hyp]NTF[Glyψ(CH2S)Leu][Arg(Me)]W-NH2)
1.2

Record request: Specific Activity value, item CNC(=N)NCCC[C@H](NC(=O)[C@H](CC(C)C)NC(=O)C(C)(C)NC(=O)[C@H](Cc1ccccc1)NC(=O)[C@@H](NC(=O)[C@H](CC(N)=O)NC(=O)[C@@H]1C[C@@H](O)CN1C(=O)[C@@H](Cc1ccc(O)cc1)NC(C)=O)[C@@H](C)O)C(=O)N[C@@H](Cc1c[nH]c2ccccc12)C(N)=O [Compound No. 811] (Ac-[dY][Hyp]NTF[Aib]L[Arg(Me)]W-NH2)
1.5

Item CNC(=N)NCCC[C@H](NC(=O)[C@H](CC(C)C)NC(=O)[C@@H](NC(=O)[C@H](Cc1ccccc1)NC(=O)[C@@H](NC(=O)[C@H](CC(N)=O)NC(=O)[C@@H]1C[C@@H](O)CN1C(=O)[C@@H](Cc1ccc(O)cc1)NC(C)=O)[C@@H](C)O)C(C)C)C(=O)N[C@@H](Cc1c[nH]c2ccccc12)C(N)=O [Compound No. 847] (Ac-[dY][Hyp]NTFVL[Arg(Me)]W-NH2) has what recorded Specific Activity?
1.7

Look up Specific Activity for this compound: CNC(=N)NCCC[C@H](NC(=O)[C@H](COC)NC(=O)CNC(=O)[C@H](CC1CCCCC1)NC(=O)[C@@H](NC(=O)[C@H](CC(N)=O)NC(=O)[C@@H]1C[C@@H](O)CN1C(=O)[C@@H](Cc1ccc(O)cc1)NC(C)=O)[C@@H](C)O)C(=O)N[C@@H](Cc1c[nH]c2ccccc12)C(N)=O [Compound No. 920] (Ac-[dY][Hyp]NT[Cha]GS(Me)[Arg(Me)]W-NH2)
0.5
